- Test protocol: Half life in male Sprague-Dawley rat at 2 mg/kg, iv measured upto 24 hrs by LC-MS/MS analysis
- Format: ADME, organism-based
- Condition: in vivo
Readout kind: half-life (min)
One number for each entry, in min.

QUERY: Report half-life for N#Cc1c(N)nc(N)nc1N1CC2(CC2)C[C@H]1c1nc2cccc(Cl)c2c(=O)n1Cc1ccc(C(=O)NO)s1
RESULT: 27.6

###

- Test protocol: Cmax in male Sprague-Dawley rat at 2 mg/kg, iv measured upto 24 hrs by LC-MS/MS analysis
- Format: ADME, organism-based
- Design: time < 24 hrs, dose 2 mg/kg, route iv
- Condition: in vivo
Readout kind: Cmax (ng/mL)
Numbers only, in ng/mL.

QUERY: Report Cmax for N#Cc1c(N)nc(N)nc1N1CC2(CC2)C[C@H]1c1nc2cccc(Cl)c2c(=O)n1Cc1ccc(C(=O)NO)s1
RESULT: 2120

###

As an illustration, consider measured IC50 for compounds on Histone deacetylase 1 (Homo sapiens).
Sequence (Q13547 whole entry): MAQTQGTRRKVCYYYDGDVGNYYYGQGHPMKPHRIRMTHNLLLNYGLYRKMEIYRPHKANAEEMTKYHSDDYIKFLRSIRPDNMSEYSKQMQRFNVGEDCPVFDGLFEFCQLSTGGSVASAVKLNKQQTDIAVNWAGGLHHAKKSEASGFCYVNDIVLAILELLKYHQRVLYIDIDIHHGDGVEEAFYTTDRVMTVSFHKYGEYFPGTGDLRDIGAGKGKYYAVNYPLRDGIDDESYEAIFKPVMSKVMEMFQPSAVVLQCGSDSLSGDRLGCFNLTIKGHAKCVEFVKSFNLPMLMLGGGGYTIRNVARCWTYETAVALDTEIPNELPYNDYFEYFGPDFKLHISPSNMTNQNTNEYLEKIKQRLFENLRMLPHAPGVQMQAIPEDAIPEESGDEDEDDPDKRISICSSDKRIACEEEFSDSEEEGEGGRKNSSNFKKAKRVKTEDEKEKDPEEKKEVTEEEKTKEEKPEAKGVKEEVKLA
One number for each entry, in nM.

Field: example entries. Status: answers known.
1) Cn1c([C@@H]2C[C@@H](OCc3ccc(C(=O)NO)s3)CN2c2nc(N)nc(N)c2C#N)nc2cccc(Cl)c2c1=O
88
2) Cn1c([C@@H]2C[C@@H](OCc3ccc(C(=O)NO)cc3)CN2c2nc(N)nc(N)c2C#N)nc2cccc(Cl)c2c1=O
72
3) Cn1c([C@@H]2C[C@@H](OC(=O)NCc3ccc(C(=O)NO)s3)CN2c2nc(N)nc(N)c2C#N)nc2cccc(Cl)c2c1=O
182
4) N#Cc1c(N)nc(N)nc1N1CC2(CC2)C[C@H]1c1nc2cccc(F)c2c(=O)n1Cc1ccc(C(=O)NO)s1
82
5) N#Cc1c(N)nc(N)nc1N1CC2(CC2)C[C@H]1c1nc2cccc(Cl)c2c(=O)n1Cc1ccc(C(=O)NO)s1
230
6) O=C(NO)c1ccc(Cn2c([C@@H]3CC4(CC4)CN3c3ncnc4[nH]cnc34)nc3cccc(F)c3c2=O)cc1
360

Provide the reported IC50 of each entry below, same order.
1. CC[C@H](Nc1nc(N)nc(N)c1C#N)c1nc2cccc(Cl)c2c(=O)n1Cc1ccc(C(=O)NO)s1
2. N#Cc1c(N)nc(N)nc1N1C[C@H](OC(=O)NCc2ccc(C(=O)NO)cc2)C[C@H]1c1nc2cccc(Cl)c2c(=O)n1-c1ccccc1
3. Cn1c([C@@H]2C[C@@H](OC(=O)NCc3ccc(C(=O)NO)cc3)CN2c2nc(N)nc(N)c2C#N)nc2cccc(Cl)c2c1=O
4. CN(Cc1ccc(C(=O)NO)cc1)C(=O)O[C@@H]1C[C@@H](c2nc3cccc(Cl)c3c(=O)n2C)N(c2nc(N)nc(N)c2C#N)C1

RESULT:
[198, 271, 102, 260]

###

- System tested: Phosphatidylinositol 4,5-bisphosphate 3-kinase catalytic subunit delta isoform (Homo sapiens)
- Sequence (O00329 whole entry): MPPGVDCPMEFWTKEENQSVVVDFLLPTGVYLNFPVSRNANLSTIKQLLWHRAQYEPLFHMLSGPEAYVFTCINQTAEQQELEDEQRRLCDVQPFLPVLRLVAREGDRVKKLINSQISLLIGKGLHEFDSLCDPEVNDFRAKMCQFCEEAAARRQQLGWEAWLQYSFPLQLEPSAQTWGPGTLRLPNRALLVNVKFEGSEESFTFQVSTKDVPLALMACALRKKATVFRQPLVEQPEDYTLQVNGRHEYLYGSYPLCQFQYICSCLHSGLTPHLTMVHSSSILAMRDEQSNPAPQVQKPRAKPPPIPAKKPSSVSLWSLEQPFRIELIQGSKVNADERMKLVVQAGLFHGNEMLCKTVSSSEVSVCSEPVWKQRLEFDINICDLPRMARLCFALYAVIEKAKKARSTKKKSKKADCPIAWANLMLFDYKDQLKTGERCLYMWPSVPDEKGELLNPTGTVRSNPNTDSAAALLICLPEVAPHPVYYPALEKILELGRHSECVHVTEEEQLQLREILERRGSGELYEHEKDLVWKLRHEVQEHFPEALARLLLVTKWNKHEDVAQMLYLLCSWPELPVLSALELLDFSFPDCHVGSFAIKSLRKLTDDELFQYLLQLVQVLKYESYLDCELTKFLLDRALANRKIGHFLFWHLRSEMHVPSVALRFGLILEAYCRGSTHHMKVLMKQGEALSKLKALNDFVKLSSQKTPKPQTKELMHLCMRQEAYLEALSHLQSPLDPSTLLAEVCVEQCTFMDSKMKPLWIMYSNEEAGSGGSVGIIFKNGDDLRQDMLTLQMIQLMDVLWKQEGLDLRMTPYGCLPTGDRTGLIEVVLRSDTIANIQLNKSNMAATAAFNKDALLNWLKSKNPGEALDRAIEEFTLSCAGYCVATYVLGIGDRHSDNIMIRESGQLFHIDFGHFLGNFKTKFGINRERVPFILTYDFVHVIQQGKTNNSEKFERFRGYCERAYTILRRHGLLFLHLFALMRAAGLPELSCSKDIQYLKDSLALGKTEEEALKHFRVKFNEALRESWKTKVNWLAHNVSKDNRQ
- Test protocol: Inhibition of PI3Kdelta (unknown origin) measured by ADP-Glo assay
Kindly supply the reported log10 of IC50 values for the records listed here.
In our notation, the value equals log10 of IC50 in nM.

Field: example entries. Status: answers known.
1) N#Cc1c(N)nc(N)nc1N1CC2(CC2)C[C@H]1c1nc2cccc(Cl)c2c(=O)n1Cc1ccc(C(=O)NO)s1
0.36
2) N#Cc1c(N)nc(N)nc1N1CC2(CC2)C[C@H]1c1nc2cccc(Cl)c2c(=O)n1Cc1ccc(C(=O)NO)cc1
0.79
3) Cn1c([C@@H]2C[C@@H](OC(=O)NCCc3ccc(C(=O)NO)cc3)CN2c2nc(N)nc(N)c2C#N)nc2cccc(Cl)c2c1=O
1.34

Provide the reported log10 of IC50 of each entry below, same order.
1. N#Cc1c(N)nc(N)nc1N1CC2(CC2)C[C@H]1c1nc2cccc(F)c2c(=O)n1Cc1ccc(C(=O)NO)s1
2. N#Cc1c(N)nc(N)nc1N1CC2(CC2)C[C@H]1c1nc2cccc(F)c2c(=O)n1Cc1ccc(C(=O)NO)cc1
3. O=C(NO)c1ccc(Cn2c([C@@H]3CC4(CC4)CN3c3ncnc4[nH]cnc34)nc3cccc(F)c3c2=O)cc1
4. N#Cc1c(N)nc(N)nc1N1CC2(CC2)C[C@H]1c1nc2cccc(Cl)c2c(=O)n1Cc1cc(C(=O)NO)no1
5. Cn1c([C@@H]2C[C@@H](OCc3ccc(C(=O)NO)s3)CN2c2nc(N)nc(N)c2C#N)nc2cccc(Cl)c2c1=O

RESULT:
1. 1.30
2. 1.52
3. 2.13
4. 0.84
5. 1.62

Provide the reported log10 of IC50 of each entry below, same order.
1. N#Cc1c(N)nc(N)nc1N1C[C@H](OC(=O)NCc2ccc(C(=O)NO)cc2)C[C@H]1c1nc2cccc(Cl)c2c(=O)n1-c1ccccc1
2. Cn1c([C@@H]2C[C@@H](OCc3ccc(C(=O)NO)cc3)CN2c2nc(N)nc(N)c2C#N)nc2cccc(Cl)c2c1=O
3. N#Cc1c(N)nc(N)nc1N1C[C@@H](OC(=O)NCc2ccc(C(=O)NO)cc2)C[C@H]1c1nc2cccc(Cl)c2c(=O)n1-c1ccccc1
4. CN(Cc1ccc(C(=O)NO)cc1)C(=O)O[C@@H]1C[C@@H](c2nc3cccc(Cl)c3c(=O)n2C)N(c2nc(N)nc(N)c2C#N)C1

RESULT:
0.20
1.88
0.83
1.62

Provide the reported log10 of IC50 of each entry below, same order.
1. CC[C@H](Nc1ncnc2[nH]cnc12)c1nc2cccc(F)c2c(=O)n1Cc1ccc(C(=O)NO)cc1
2. Cn1c([C@@H]2C[C@@H](OC(=O)NCc3ccc(C(=O)NO)s3)CN2c2nc(N)nc(N)c2C#N)nc2cccc(Cl)c2c1=O
3. Cn1c([C@@H]2C[C@@H](OC(=O)NCc3ccc(C(=O)NO)cc3)CN2c2nc(N)nc(N)c2C#N)nc2cccc(Cl)c2c1=O
4. CC[C@H](Nc1ncnc2[nH]cnc12)c1nc2cccc(F)c2c(=O)n1CCCCCC(=O)NO
5. N#Cc1c(N)nc(N)nc1N1C[C@H](OC(=O)NCc2ccc(C(=O)NO)cc2)C[C@H]1c1nc2cccc(F)c2c(=O)n1-c1ccccc1

RESULT:
[2.00, 1.20, 1.26, 1.56, 1.38]

###

- Test protocol: Apparent volume of distribution in male Sprague-Dawley rat at 2 mg/kg, iv measured upto 24 hrs by LC-MS/MS analysis
- Format: ADME, organism-based
- Condition: in vivo, read-out: Vz
Readout kind: Vd (L/kg)
Give bare numbers, in L/kg.

QUERY: Report Vd for N#Cc1c(N)nc(N)nc1N1CC2(CC2)C[C@H]1c1nc2cccc(Cl)c2c(=O)n1Cc1ccc(C(=O)NO)s1
RESULT: 2.09

Where these numbers come from: ChEMBL document CHEMBL5214954
